Attribute: protein stability index
B1: ANKRD40 (parent)
chain: SLRENDFIEIELDRQELTYQELLR

# Variants of: B1
# assay.comment: protein stability index of a GFP-peptide fusion (GPS, HEK-293T) (PSI 1-6); higher = more stable;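 note: lentivirally expressed fusions sorted by FACS into six bins by GFP to DsRed ratio, PSI derived from sequencing read proportions per bin multiplied by bin number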
# measurement.parameters: c terminus: a fixed tail appended

| input.sequence | protein stability index |
| --- | --- |
| SLRENDFIEIELDRQELTYQELLS [R24S] | 2.92 |
| SLTENDFIEIELDRQELTYQELLR [R3T] | 2.91 |
| SERENDFIEIELDRQELTYQELLR [L2E] | 2.93 |
| SLRENDFIEIELDTQELTYQELLR [R14T] | 3.01 |
| SLRENDFIEIELDRQELAYQELLR [T18A] | 3.06 |
